- System Name: T1, rat serum albumin (rat, UniProt P02770 25-608)
- T1 construct: also called RSA
- Test Details: SPR (BIAcore), eight-point dilution kinetics
Measure Name: Kd (nM)

Worked examples follow.
Name the recorded Kd for DOM7r-36-2 (VHH) VHH: EVQLLESGGGLVQPGGSLRLSCAASGFTFNHYTMGWVRQAPGKGREWVSLIHPSGTVTYYADSVKGRFTISRDNSKNTLYLQMNSLRAEDTAVYYCAKWSSRAFDYWGQGTLVTVSS .
190

Name the recorded Kd for DOM7r-36-8 (VHH) VHH: EVQLLESGGGLVQPGGSLRLSCAASGFTFNHYTMGWVRQAPGKGLEWVSLIHPSGTVIYYADSVKGRFTISRDNSKNTLYLQMNSLRAEDTAVYYCARWSSRAFDYWGQGTLVTVSS .
210

(a) DOM7r-92-4 (VHH) VHH: EVQLLESGGGLVQPGGSLRLSCAASGFTFDTSSMLWVRQAPGKGLEWVSVIHQSGTPTYYADSVKGRFTISRDNSKNTLYLQMNSLRAEDTAVYYCAKFPSTHGKFDYWGQGTLVTVSS
(b) DOM7h-98-4 (VHH) VHH: EVQLLESGGGLVQPGGSLRLSCAASGFTFGNYAMAWVRQAPGKGLEWVSSIDMVGIKTYYADSVKGRFTNSRDNSKNTLYLQMNSLRAEDTAVYYCARGFRIFDYWGQGTLVTVSS
Lab note: check whether a or b has the lower measured Kd. // caller expects the label of the chosen entry
a
(a: 260 nM, b: 580 nM)

These entries and their values trace back to patent US20120114647A1.
